Experiment: Selectivity index, ratio of CC50 for human MT4 cells to EC50 for wild-type HIV1 3B reverse transcriptase infected in human MT4 cells
Type: toxicity, cell-based
Settings: read-out: Ratio CC50/EC50
Decide by selectivity ratio: equal to or exceeding 600 means 1 (yes), less means 0 (no).

Here's what some known entries look like.
Cc1cc(C#N)cc(C)c1Oc1nc(NC2CCN(Cc3ccc(C(N)=O)cc3)CC2)nc2cc[nH]c12: 1 (yes)
Cc1cc(C#N)cc(C)c1Oc1nc(NC2CCN(Cc3ccc(S(C)(=O)=O)cc3)CC2)nc2ccn(S(=O)(=O)c3ccccc3)c12: 0 (no)
Cc1cc(C#N)cc(C)c1Oc1nc(NC2CCN(Cc3ccc(S(N)(=O)=O)cc3)CC2)nc2ccn(COCc3ccccc3)c12: 1 (yes)

## Input Quick check: does "Cc1cc(C#Cc2ccncc2)cc(C)c1Oc1nc(NC2CCN(Cc3ccc(S(N)(=O)=O)cc3)CC2)nc2ccsc12" have selectivity ratio greater than or equal to 600?
## Output 0 (no)

## Input Check this compound for selectivity ratio at or above 600: "Cc1cc(C#N)cc(C)c1Oc1nc(NC2CCN(Cc3ccco3)CC2)nc2ccsc12"
## Output 1 (yes)

## Input Please check the record "Cc1cc(C#N)cc(C)c1Oc1nc(NC2CCN(Cc3n[nH]c(=O)n3C)CC2)nc2ccsc12" and state if its selectivity ratio is at or above 600.
## Output 1 (yes)

## Input Determine whether measured selectivity ratio meets or exceeds 600 for "Cc1cc(C#N)cc(C)c1Nc1nc(NC2CCN(Cc3ccc(S(N)(=O)=O)cc3)CC2)nc2ccsc12"
## Output 1 (yes)

----------
# selectivity ratio listing for each entry below
Assay: Selectivity index, ratio of CC50 for human MT4 cells to EC50 for HIV1 RES056 reverse transcriptase K103N/Y181C double mutant infected in human MT4 cells
Format: toxicity, cell-based
Settings: read-out: Ratio CC50/EC50
The answer should be a number; do not append a unit.

Cc1cc(C#Cc2ccncc2)cc(C)c1Oc1nc(NC2CCN(Cc3ccc(S(N)(=O)=O)cc3)CC2)nc2ccsc12: 52
Cc1cc(C#N)cc(C)c1Oc1nc(NC2CCN(Cc3cc(=O)[nH]c(=O)[nH]3)CC2)nc2ccsc12: 15
Cc1cc(C#Cc2cccnc2)cc(C)c1Oc1nc(NC2CCN(Cc3ccc(S(N)(=O)=O)cc3)CC2)nc2ccsc12: 42
Cc1cc(C#N)cc(C)c1Oc1nc(NC2CCN(Cc3ccc(S(N)(=O)=O)cc3)CC2)nc2ccn(COCc3ccccc3)c12: 10
Cc1cc(C#N)cc(C)c1Oc1nc(NC2CCN(Cc3cn(S(C)(=O)=O)cn3)CC2)nc2ccsc12: 8
Cc1cc(C#N)cc(C)c1Oc1nc(NC2CCN(Cc3ccc(S(C)(=O)=O)cc3)CC2)nc2ccn(S(=O)(=O)c3ccccc3)c12: 26
Cc1cc(C#Cc2ccccn2)cc(C)c1Oc1nc(NC2CCN(Cc3ccc(S(N)(=O)=O)cc3)CC2)nc2ccsc12: 12
Cc1cc(C#N)cc(C)c1Oc1nc(NC2CCN(Cc3ccc(S(N)(=O)=O)cc3)CC2)nc2cc[nH]c12: 61
Cc1cc(C#N)cc(C)c1Oc1nc(NC2CCN(Cc3ccc(S(N)(=O)=O)cc3)CC2)nc2ccn(S(=O)(=O)c3ccccc3)c12: 33
Cc1cc(C#N)cc(C)c1Oc1nc(NC2CCN(Cc3ccc(S(C)(=O)=O)cc3)CC2)nc2cc[nH]c12: 16

## Input What does the data say about its selectivity ratio? Entry: "Cc1cc(C#N)cc(C)c1Oc1nc(NC2CCN(Cc3ccc(C(N)=O)cc3)CC2)nc2cc[nH]c12"
## Output 118

## Input I would be grateful if you could share the reported selectivity ratio for "Cc1cc(/C=C/C#N)cc(C)c1Nc1nc(NC2CCN(Cc3ccc(S(N)(=O)=O)cc3)CC2)nc2ccsc12" .
## Output 419

## Input Field request: selectivity ratio | item: "Cc1cc(C#N)cc(C)c1Oc1nc(NC2CCN(Cc3c[nH]cn3)CC2)nc2ccsc12"
## Output 21
